Tested on: 292921-168-R-J2-PDC complex spheroid viability
Experiment: Anticancer human tumor 292921-168-R-J2-PDC patient-derived pancreatic carcinoma cell line growth inhibition; active means viability on the fitted dose curve at most 10% of control; inactive means the rest
Conditions: second compound 0.1 µM; first compound 0.03 µM
Pick from class 1 for active, class 0 for inactive when you respond.

Query string: Could you please tell me the result logged for Nc1ccccc1NC(=O)c1ccc(CNC(=O)OCc2cccnc2)cc1 + NC1CC1c1ccc(-c2cccc(O)c2)cc1 in this assay?
Result string: class 0

Query string: Could you kindly confirm the outcome this assay logged for Nc1ncn(C2CC(O)C(CO)S2)c(=O)n1 (centres undefined) + NC1CC1c1ccc(-c2cccc(O)c2)cc1 ?
Result string: class 0

Query string: Give the logged outcome of this assay for the following compound: Nc1ccn(C2OC(CO)C(O)C2(F)F)c(=O)n1 (centres undefined) + NC1CCC(NC2CC2c2ccccc2)CC1
Result string: class 1

Query string: Per the assay record, what outcome was assigned to CCc1c2c(nc3ccc(O)cc13)-c1cc3c(c(=O)n1C2)COC(=O)[C@]3(O)CC + NC1CC1c1ccc(-c2cccc(O)c2)cc1 ?
Result string: class 1

Query string: For NS(=O)(=O)OCC1CC(n2ccc3c(NC4CCc5ccccc54)ncnc32)CC1O (centres undefined) + NC1CCC(NC2CC2c2ccccc2)CC1 , which call appears in the assay record?
Result string: class 0

Query string: Could you please tell me the result logged for CCN(c1cc(-c2ccc(CN3CCOCC3)cc2)cc(C(=O)NCc2c(C)cc(C)[nH]c2=O)c1C)C1CCOCC1 + NC1CCC(NC2CC2c2ccccc2)CC1 in this assay?
Result string: class 0

Query string: Give the logged outcome of this assay for the following compound: O=C(C=Cc1cccc(S(=O)(=O)Nc2ccccc2)c1)NO + NC1CC1c1ccc(-c2cccc(O)c2)cc1
Result string: class 0

Query string: Answer briefly: the call reported for O=C(C=Cc1cccc(S(=O)(=O)Nc2ccccc2)c1)NO + NC1CCC(NC2CC2c2ccccc2)CC1 in this assay.
Result string: class 0

Query string: // outcome(item) with item = CCN(c1cc(-c2ccc(CN3CCOCC3)cc2)cc(C(=O)NCc2c(C)cc(C)[nH]c2=O)c1C)C1CCOCC1 + NC1CC1c1ccc(-c2cccc(O)c2)cc1
Result string: class 0

###

System: 292921-168-R-J2-PDC complex spheroid viability
Assay: Anticancer human tumor 292921-168-R-J2-PDC cell line growth inhibition;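 further: seven day compound exposure before luminescent viability read; 100% = DMSO vehicle control wells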
Conditions: second compound 3.16 µM; first compound 10 µM; stronger effect = lower value
Assignment: determine reported viability, T/C for the given compounds.
Give just the numeric value; % need not be written.

Query string: Entry O=C(c1cc(Cc2n[nH]c(=O)c3ccccc23)ccc1F)N1CCN(C(=O)C2CC2)CC1 + NC1CC1c1ccc(-c2cccc(O)c2)cc1 , system 292921-168-R-J2-PDC complex spheroid viability: what viability, T/C was measured?
Result string: 32.8

Query string: Which measured viability, T/C belongs to COc1ccc([C@@H](O)c2cc(-c3ncnc4cc(N5CCOCC5)ccc34)c(F)cc2Cl)nn1 + NC1CCC(NC2CC2c2ccccc2)CC1 , tested on 292921-168-R-J2-PDC complex spheroid viability?
Result string: 10.7

Query string: Kindly state the measured viability, T/C obtained for COc1ccc([C@@H](O)c2cc(-c3ncnc4cc(N5CCOCC5)ccc34)c(F)cc2Cl)nn1 + NC1CC1c1ccc(-c2cccc(O)c2)cc1 with 292921-168-R-J2-PDC complex spheroid viability.
Result string: 11.5

Query string: GET /values?readout=viability, T/C&system=292921-168-R-J2-PDC complex spheroid viability&item= CC1(C)CCC(CN2CCN(c3ccc(C(=O)NS(=O)(=O)c4ccc(NCC5CCOCC5)c([N+](=O)[O-])c4)c(Oc4cnc5[nH]ccc5c4)c3)CC2)=C(c2ccc(Cl)cc2)C1 + NC1CCC(NC2CC2c2ccccc2)CC1
Result string: 0.14

Query string: Give 292921-168-R-J2-PDC complex spheroid viability viability, T/C for CC1COCCN1c1cc(C2(S(C)(=N)=O)CC2)nc(-c2ccnc3[nH]ccc23)n1 (stereo not given) + NC1CCC(NC2CC2c2ccccc2)CC1
Result string: 12.7

Query string: What measured viability, T/C is associated with CC(C)c1c(-c2ccccc2)nc2c(C#N)c[nH]n2c1=O + NC1CCC(NC2CC2c2ccccc2)CC1 on 292921-168-R-J2-PDC complex spheroid viability?
Result string: 49.9

Query string: Find viability, T/C (292921-168-R-J2-PDC complex spheroid viability) for the entry CC1COCCN1c1cc(C2(S(C)(=N)=O)CC2)nc(-c2ccnc3[nH]ccc23)n1 (stereo not given) + NC1CC1c1ccc(-c2cccc(O)c2)cc1
Result string: 11.8

Query string: Query the reported viability, T/C for 292921-168-R-J2-PDC complex spheroid viability; item: CC(C)c1c(-c2ccccc2)nc2c(C#N)c[nH]n2c1=O + NC1CC1c1ccc(-c2cccc(O)c2)cc1
Result string: 59.6

Query string: Query the reported viability, T/C for 292921-168-R-J2-PDC complex spheroid viability; item: CC1(C)CCC(CN2CCN(c3ccc(C(=O)NS(=O)(=O)c4ccc(NCC5CCOCC5)c([N+](=O)[O-])c4)c(Oc4cnc5[nH]ccc5c4)c3)CC2)=C(c2ccc(Cl)cc2)C1 + NC1CC1c1ccc(-c2cccc(O)c2)cc1
Result string: 0.19

Query string: Which viability, T/C is reported with 292921-168-R-J2-PDC complex spheroid viability for this entry: O=C(c1cc(Cc2n[nH]c(=O)c3ccccc23)ccc1F)N1CCN(C(=O)C2CC2)CC1 + NC1CCC(NC2CC2c2ccccc2)CC1 ?
Result string: 34.9

Data provenance is PubChem BioAssay AID1918934.
